The following compounds are shown together with reported Ki values.
Biological target: Proprotein convertase subtilisin/kexin type 7 (Homo sapiens, UniProt Q16549)
Sequence (Q16549 whole entry): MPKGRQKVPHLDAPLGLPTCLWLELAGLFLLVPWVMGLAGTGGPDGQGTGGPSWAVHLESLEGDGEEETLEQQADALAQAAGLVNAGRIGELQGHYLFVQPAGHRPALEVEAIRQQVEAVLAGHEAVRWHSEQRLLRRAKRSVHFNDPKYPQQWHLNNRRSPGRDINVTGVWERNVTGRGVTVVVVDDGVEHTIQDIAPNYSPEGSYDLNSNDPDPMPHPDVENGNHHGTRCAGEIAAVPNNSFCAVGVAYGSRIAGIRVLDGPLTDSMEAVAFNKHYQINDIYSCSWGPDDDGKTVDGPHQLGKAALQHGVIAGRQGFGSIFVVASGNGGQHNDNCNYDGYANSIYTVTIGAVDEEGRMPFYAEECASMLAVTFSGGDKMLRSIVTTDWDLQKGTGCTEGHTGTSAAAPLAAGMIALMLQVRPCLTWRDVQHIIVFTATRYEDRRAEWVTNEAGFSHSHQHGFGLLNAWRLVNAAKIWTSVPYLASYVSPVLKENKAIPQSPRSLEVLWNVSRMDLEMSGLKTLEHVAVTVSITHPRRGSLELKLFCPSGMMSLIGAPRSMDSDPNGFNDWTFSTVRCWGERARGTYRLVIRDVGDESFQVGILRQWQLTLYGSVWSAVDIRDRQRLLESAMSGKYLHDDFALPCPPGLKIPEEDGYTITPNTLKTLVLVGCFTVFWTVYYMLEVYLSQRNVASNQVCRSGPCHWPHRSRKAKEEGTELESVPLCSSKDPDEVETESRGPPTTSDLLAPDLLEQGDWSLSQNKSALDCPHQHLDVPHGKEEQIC
Residues, ends and D or L forms follow the SMILES beside them. *: point of attachment. Agmatine = N=C(N)NCCCCN*; PhAc = O=C(Cc1ccccc1)*

[
  {
    "compound": "CC(C)[C@H](NC(=O)[C@H](CCCNC(=N)N)NC(=O)Cc1ccccc1)C(=O)N[C@@H](CCCNC(=N)N)C(=O)NCCCCNC(=N)N (PhAc-Arg-Val-Arg-Agmatine)",
    "Ki": "> 10 µM"
  },
  {
    "compound": "CC(=O)N[C@@H](CCCNC(=N)N)C(=O)N[C@H](C(=O)N[C@@H](CCCNC(=N)N)C(=O)NCc1ccc(C(=N)N)cc1)C(C)C",
    "Ki": "5.13 µM"
  },
  {
    "compound": "CCCCCCCCCC(=O)N[C@@H](CCCN=C(N)N)C(=O)N[C@H](C(=O)N[C@@H](CCCN=C(N)N)C(=O)NCc1ccc(C(=N)N)cc1)C(C)C",
    "Ki": "0.968 µM"
  },
  {
    "compound": "CC(C)[C@H](NC(=O)[C@H](CCCNC(=N)N)NC(=O)Cc1ccccc1)C(=O)N[C@@H](CCCNC(=N)N)C(=O)NCc1ccc(C(=N)N)cc1",
    "Ki": "6.15 µM"
  },
  {
    "compound": "CC(C)[C@H](NC(=O)[C@H](CCCNC(=N)N)NC(=O)Cc1ccccc1)C(=O)N[C@@H](CCCNC(=N)N)C(=O)NCC1CCN(C(=N)N)CC1",
    "Ki": "> 10 µM"
  }
]
